Attribution: paper PMC4523931

- experimentalDetails: in vivo
- assayConditions: female, cynomolgus monkey, plasma, po, 100 mg/kg
readoutType: AUC(0-t) (µM·h)
Your answer is read as µM·h, so omit the unit and give the number.

INPUT: Find the measured AUC(0-t) of CC(C)Cc1ccc(C(C)C(=O)O)cc1 (stereo not shown) [ibuprofen] and report it.
OUTPUT: 3740

====

- experimentalDetails: clinical
- assayConditions: both, human, in vivo, iv, 800 mg
readoutType: AUC(0-t)

INPUT: Output AUC(0-t) of CC(C)Cc1ccc(C(C)C(=O)O)cc1 (stereo not shown) [ibuprofen]
OUTPUT: 831 µM·h

====

- experimentalDetails: in vivo
- assayConditions: female, cynomolgus monkey, CSF, po, 100 mg/kg
readoutType: AUC(0-t) (µM·h)
Your answer should be a plain number; it is taken to be in µM·h.

INPUT: Please report AUC(0-t) for the following molecule: CC(C)Cc1ccc(C(C)C(=O)O)cc1 (stereo not shown) [ibuprofen]
OUTPUT: 36.4
